# credit: ChEMBL document CHEMBL1944511

# Tested on: DU-145
# assay: Growth inhibition of human DU145 cells at 20 uM after 48 hrs by sulpharhodamine B assay
# Assay type: functional
# conditionInfo: DU-145, 48 h, read-out: GI
// inhibition of growth at 20 µM lookup, one value per entry
// note: answer is a bare numeric in %

For orientation, consider the following solved cases.
COc1ccc(/C=C/[C@](C)(/C=C/c2ccc(O)cc2)CCC=C(C)C)cc1 :: 73
C=C[C@@](C)(/C=C/c1ccc(OC(C)=O)cc1)CCC=C(C)C [ACETYLBAKUCHIOL] :: 42
O=c1[nH]cc(F)c(=O)[nH]1 [FLUOROURACIL] :: 75

Shifting focus to the molecule that follows.
[Q] I would be grateful if you could share the reported inhibition of growth at 20 µM for CC1C(C(C)(C)O)CCC1(C)/C=C/c1ccc(O)cc1 (centres undefined) .
[A] 54
